System: Escherichia coli
Assay: Antibacterial activity against Escherichia coli MTCC 443 assessed as inhibition of bacterial growth incubated for 18 to 20 hrs by broth microdilution assay
Type: functional
Conditions: time 18-20 hrs
quantity: MIC (µg/mL)
Please respond with the number in µg/mL and leave the unit unwritten.

The molecule listed as Cc1cc(=O)oc2cc(OC(=O)CNC3N=C(c4ccc(F)cc4)C=C(c4ccc(Cl)cc4)S3)c([N+](=O)[O-])cc12 (configuration not stated) shows MIC equal to 50

The molecule listed as Cc1cc(=O)oc2cc(OC(=O)CNC3N=C(c4ccc(F)cc4)C=C(c4ccc(F)cc4)S3)c([N+](=O)[O-])cc12 (configuration not stated) shows MIC equal to 200

The molecule listed as O=C(O)c1cn(C2CC2)c2cc(N3CCNCC3)c(F)cc2c1=O shows MIC equal to 25

The molecule listed as Cc1cc(=O)oc2cc(OC(=O)CNC3N=C(c4ccc(F)cc4)C=C(c4cccc(Br)c4)S3)c([N+](=O)[O-])cc12 (configuration not stated) shows MIC equal to 500

The molecule listed as Cc1cc(=O)oc2cc(OC(=O)CNC3N=C(c4ccc(F)cc4)C=C(c4cccc(Oc5ccccc5)c4)S3)c([N+](=O)[O-])cc12 (configuration not stated) shows MIC equal to 250

The molecule listed as O=C(N[C@H](CO)[C@H](O)c1ccc([N+](=O)[O-])cc1)C(Cl)Cl shows MIC equal to 50

The molecule listed as Cc1cc(=O)oc2cc(OC(=O)CNC3N=C(c4ccc(F)cc4)C=C(c4ccc(O)cc4)S3)c([N+](=O)[O-])cc12 (configuration not stated) shows MIC equal to 250

###

Test system: Bacillus subtilis
Assay: Antibacterial activity against Bacillus subtilis assessed as inhibition of bacterial growth relative to control
Assay type: functional
quantity: inhibition (INH) (%)
Please respond with the number in % and leave the unit unwritten.

Here COC(=O)c1nnn(CC(=O)c2cc3c(ccc4ccccc43)oc2=O)c1C(=O)OC was tested on Bacillus subtilis, and its inhibition (INH) came to 83.3

Here O=C(O)c1cn(C2CC2)c2cc(N3CCNCC3)c(F)cc2c1=O was tested on Bacillus subtilis, and its inhibition (INH) came to 100

Here COC(=O)c1nnn(CC(=O)c2cc3cc(Cl)ccc3oc2=O)c1C(=O)OC was tested on Bacillus subtilis, and its inhibition (INH) came to 83.3

Here COC(=O)c1nnn(CC(=O)c2cc3cc(Br)ccc3oc2=O)c1C(=O)OC was tested on Bacillus subtilis, and its inhibition (INH) came to 82.2

Here COC(=O)c1nnn(CC(=O)c2cc3cc(C)ccc3oc2=O)c1C(=O)OC was tested on Bacillus subtilis, and its inhibition (INH) came to 83.3

###

System: Escherichia coli
Assay: Antibacterial activity against Escherichia coli assessed as inhibition of bacterial growth by broth micro dilution assay
Type: functional
quantity: MIC (µg/mL)
Please respond with the number in µg/mL and leave the unit unwritten.

The compound listed as COc1ccc2oc(=O)cc(C3NNC(=O)N3)c2c1 (configuration not stated) shows MIC equal to 0.8

The compound listed as COc1ccc2c(C3NNC(=O)N3)cc(=O)oc2c1 (configuration not stated) shows MIC equal to 1.6

The compound listed as Cc1ccc2oc(=O)cc(C3NNC(=O)N3)c2c1 (configuration not stated) shows MIC equal to 0.8

The compound listed as O=C1NNC(c2cc(=O)oc3ccc(Cl)cc23)N1 (configuration not stated) shows MIC equal to 25

The compound listed as Cc1cc(C)c2c(C3NNC(=O)N3)cc(=O)oc2c1 (configuration not stated) shows MIC equal to 50

The compound listed as Cc1ccc2c(C3NNC(=O)N3)cc(=O)oc2c1C (configuration not stated) shows MIC equal to 25

The compound listed as Cc1ccc2c(C3NNC(=O)N3)cc(=O)oc2c1 (configuration not stated) shows MIC equal to 1.6
